Assay: Pharmacokinetics after single oral dose in rats (plasma and brain)
Format: in vivo, rats (Crl: CD BR Vaf+)
Settings: Crl: CD BR Vaf+, rat; 100 mg/kg oral, male rats, plasma; read-out: elimination half-life (converted)
Method: Male rats (Crl: CD BR Vaf+) weighing 180-220 g were fasted overnight before dosing and until 4 hr after dosing. […] Aliquots of plasma (0.05 or 0.5 ml) were mixed with internal standard (50 μl of methanol containing 5 μg/ml a monofluoro analog of nepicastat, and 5 mg/ml dithiothreitol). […] Concentrations of analytes were determined from a standard curve generated from the analysis of plasma from untreated rats fortified with known concentrations of analyte. […]
parameter: half-life (h)
Kindly answer with a numeric value in h, unit omitted.

For the molecule shown here, Cl.NCc1c[nH]c(=S)n1[C@H]1CCc2c(F)cc(F)cc2C1 [nepicastat] , give the reported half-life.
3.88
